FYI, the data here is from PubChem BioAssay (EPA / NIEHS).

Assay: CCTE_Shafer_MEA_dev_per_burst_spike_percent: CCTE's Neural Network Formation Assay for Percent of Spikes in a Burst, Shafer Lab (AID 2284032)
Method: CCTE_Shafer_MEA_dev assay is conducted using Axion Biosystems 48 well microelectrode array (MEA) plates and Maestro recording system. Each well of the MEA plate contains a grid of 16 microelectrodes embedded in the culture surface. Electrically active cells, such as neurons, can be cultured over the electrodes, and electrical activity in these cells can be recorded extracellularly. […]
The source made the active and inactive calls. The calls were made as follows: active = hit-call score of the fitted dose curve at least 0.9, where 1 is the maximum; inactive = score below 0.9.
Valid outcomes are listed here; reply with one: active, inactive

Incoming: Fill in: this test's call for ClC1=C(Cl)C2(Cl)C3C(Cl)C=CC3C1(Cl)C2(Cl)Cl (stereo not given) is ___
Outgoing: active

Incoming: Fill in: this test's call for O=P(OCCCl)(OCCCl)OCCCl is ___
Outgoing: inactive

Incoming: Fill in: this test's call for CCCCOC(=O)c1ccccc1C(=O)OCc1ccccc1 is ___
Outgoing: inactive

Incoming: Fill in: this test's call for OCCOCCO is ___
Outgoing: inactive

Incoming: Fill in: this test's call for [O-][Cl+]O is ___
Outgoing: inactive

Incoming: Fill in: this test's call for CC(C)COC(=O)c1ccccc1C(=O)OCC(C)C is ___
Outgoing: active

Incoming: Fill in: this test's call for CCC[CH2][Sn]([Cl])([CH2]CCC)[CH2]CCC is ___
Outgoing: active

Incoming: Fill in: this test's call for CC(C)(O)c1cnn2c(-c3ccc(F)c(-c4c(F)cccc4C#N)c3)cnc2n1 is ___
Outgoing: active

Incoming: Fill in: this test's call for Nc1cc(Cl)cc(C(=O)O)c1Cl is ___
Outgoing: inactive

Incoming: Fill in: this test's call for CC(C)(C)C(O)(CCc1ccc(Cl)cc1)Cn1cncn1 (stereo not given) is ___
Outgoing: active

====

Experiment: BSK_SAg_PBMCCytotoxicity: PBMC Cytotoxicity Assessment in the BioMAP Diversity Plus: SAg Assay (AID 2283093);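 also: PBMC viability measured as Alamar Blue reduction fluorescence at 546/580 nm; fitted both ways against DMSO so a hit may be loss or gain of signal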
Conditions: primary human HUVEC with PBMC
The source made the active and inactive calls. Rule for the calls: active = hit-call score of the fitted dose curve at least 0.9, where 1 is the maximum; inactive = score below 0.9.
Valid outcomes are listed here; reply with one: 1 for active, -1 for inactive

Incoming: Fill in: this test's call for Cc1cc(N=Nc2ccccc2C)ccc1N is ___
Outgoing: -1

Incoming: Fill in: this test's call for Nc1ccc(Cl)cc1N is ___
Outgoing: -1

Incoming: Fill in: this test's call for N#CC(Br)(Br)C(N)=O is ___
Outgoing: -1

Incoming: Fill in: this test's call for O=C(O)C1C2CCC(O2)C1C(=O)O (stereo not drawn) is ___
Outgoing: -1

Incoming: Fill in: this test's call for O=C(Nc1ccccc1)c1ccccc1I is ___
Outgoing: -1

Incoming: Fill in: this test's call for CCOC(=O)[C@]1(c2ccccc2)Oc2ccccc2[C@@H]1N is ___
Outgoing: 1

Incoming: Fill in: this test's call for CC(C)COC(=O)c1ccccc1C(=O)OCC(C)C is ___
Outgoing: 1

Incoming: Fill in: this test's call for CC(C)(C)C(O)(CCc1ccc(Cl)cc1)Cn1cncn1 (stereo not drawn) is ___
Outgoing: -1

Incoming: Fill in: this test's call for ClCCOCCCl is ___
Outgoing: -1

Incoming: Fill in: this test's call for O=C(N[C@H](c1ccccc1)[C@@H]1CN2CCC1CC2)c1c(Cl)ccc(C(F)(F)F)c1Cl is ___
Outgoing: 1

Incoming: Fill in: this test's call for CC(C)(O)c1cnn2c(-c3ccc(F)c(-c4c(F)cccc4C#N)c3)cnc2n1 is ___
Outgoing: 1

Incoming: Fill in: this test's call for CCCCOC(=O)c1ccccc1C(=O)OCc1ccccc1 is ___
Outgoing: -1

Incoming: Fill in: this test's call for Nc1cc(Cl)cc(C(=O)O)c1Cl is ___
Outgoing: -1
